Target: Clocel_3875 (Clostridium cellulovorans)
Construct: recombinant, N-terminal His6 tag cleaved with 3C protease
Sequence (D9SKW9 entry or part of it): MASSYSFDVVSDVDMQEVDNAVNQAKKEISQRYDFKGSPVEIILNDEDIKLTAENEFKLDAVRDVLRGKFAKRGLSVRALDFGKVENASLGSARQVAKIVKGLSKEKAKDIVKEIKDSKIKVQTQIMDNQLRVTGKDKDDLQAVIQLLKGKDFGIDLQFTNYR
Assay: biochemical
Set-up: isothermal titration calorimetry of nucleotide binding to purified recombinant YajQ family protein
Kindly supply the reported Kd values for the records listed here.
The reply should contain only the number, in µM.

Consider the compound Nc1ncnc2c1ncn2[C@@H]1O[C@H](COP(=O)(O)OP(=O)(O)OP(=O)(O)O)[C@@H](O)[C@H]1O and give its recorded Kd.
21.1

Consider the compound Nc1nc2c(ncn2[C@@H]2O[C@H](COP(=O)(O)OP(=O)(O)OP(=O)(O)O)[C@@H](O)[C@H]2O)c(=O)[nH]1 and give its recorded Kd.
31
